List of Cell Viability 50 uM values.
- Tested on: Vero
- Test: Cell viability, Vero (MERV screen)
- Assay type: cell-based
- Details: 50 uM

- Molecule: "CCCCCCCOC(=O)ONc1ccn([C@@H]2O[C@H](CO)C(O)C2O)c(=O)n1 (stereo partly shown) [drawing 89]"
  Cell Viability 50 uM: "58% ± 2% (n = 4)"
- Molecule: "O=c1nc(NO)ccn1[C@@H]1O[C@H](CO)C(O)C1O (stereo partly shown) [drawing 88]"
  Cell Viability 50 uM: "47% ± 3% (n = 4)"
- Molecule: "CC(C)OC(=O)[C@H](C)NP(=O)(OC[C@H]1O[C@@H](n2ccc(NO)nc2=O)C(O)C1O)Oc1ccccc1 (stereo partly shown) [drawing 90]"
  Cell Viability 50 uM: "102% ± 36% (n = 4)"
- Molecule: "CCCCCCCNC(=O)ONc1ccn([C@@H]2O[C@H](CO)C(O)C2O)c(=O)n1 (stereo partly shown) [drawing 92]"
  Cell Viability 50 uM: "91% ± 39% (n = 4)"

----------
List of CC50 values.
- Test: in vitro
Quantity measured: CC50

- Compound: "O=c1nc(NO)ccn1[C@@H]1O[C@H](CO)[C@H](O)C1F (some centres unmarked) [EIDD-02085-01]"
  Quantity measured: "CC50"
  Endpoint value: "> 500 µM"
- Compound: "C[C@@]1(O)C2OP(=O)(Oc3ccccc3)OC[C@H]2O[C@H]1n1ccc(=O)[nH]c1=O (some centres unmarked) [EIDD-01872-01]"
  Quantity measured: "CC50"
  Endpoint value: "> 500 µM"
- Compound: "[2H]c1cn([C@@H]2O[C@H](CO)C(O)[C@@H]2O)c(=O)nc1NO (some centres unmarked) [EIDD-02261-01]"
  Quantity measured: "CC50"
  Endpoint value: "> 500 µM"
- Compound: "CC1(F)[C@@H](O)[C@@H](CO)O[C@H]1n1ccc(NO)nc1=O (some centres unmarked) [EIDD-02080-01]"
  Quantity measured: "CC50"
  Endpoint value: "> 500 µM"
- Compound: "O=c1nc(NO)ccn1[C@@H]1O[C@H](CO)C(O)[C@@H]1O (some centres unmarked) [EIDD-02200-01]"
  Quantity measured: "CC50"
  Endpoint value: "> 500 µM"
- Compound: "O=c1ccn([C@@H]2O[C@H](CO)C(O)[C@]23CC3(F)F)c(=O)[nH]1 (some centres unmarked) [EIDD-02339-01]"
  Quantity measured: "CC50"
  Endpoint value: "> 500 µM"
- Compound: "CN(C)C(=O)ONc1ccn([C@@H]2O[C@H](CO)[C@H](O)C2O)c(=O)n1 (some centres unmarked) [EIDD-02423-01]"
  Quantity measured: "CC50"
  Endpoint value: "> 500 µM"
- Compound: "CCCCCCCNC(=O)OC[C@H]1O[C@@H](n2ccc(NO)nc2=O)C(O)[C@H]1O (some centres unmarked) [EIDD-02475-01]"
  Quantity measured: "CC50"
  Endpoint value: "> 500 µM"

----------
- Test: in vivo
- Details: male, SD, rat, po, 50 mg/kg
Quantity measured: bioavailability (%)

- Compound: "O=c1nc(NO)ccn1[C@@H]1O[C@H](CO)[C@H](O)C1O (stereo partly shown) [EIDD-01931]"
  U: "%"
  Endpoint value: 28
